From: paper PMC9502539

- System: Omicron spike protein (Severe acute respiratory syndrome coronavirus 2, UniProt P0DTC2, E484A/G339D/G446S/G496S/K417N/N440K/N501Y/Q493R/Q498R/S371L/S373P/S375F/S477N/T478K/Y505H)
- Format: binding, SARS-CoV-2 Omicron variant (B.1.1.529 BA.1)
- Condition summary: 0.1 µM
Mark each entry Satisfied if its remaining activity % of omicron spike proteins sits below 80%, and Not satisfied for all others.

Reference set, count: 2
[[record]]
compound = "Nn1c(Cn2cc(CSc3nc4ccccc4n3Cc3cn(Cc4n[nH]c(=S)n4N)nn3)nn2)n[nH]c1=S"
group_label = "Not satisfied"

[[record]]
compound = "Cc1onc(NS(=O)(=O)c2ccc(-n3cc(CSc4nc5ccccc5n4Cc4cn(-c5ccc(S(=O)(=O)Nc6noc(C)c6C)cc5)nn4)nn3)cc2)c1C"
group_label = "Satisfied"


is_below(remaining activity % of omicron spike proteins, 80%) for O=C(Cn1cc(CSc2nc3ccccc3n2Cc2cn(CC(=O)NNC(=S)Nc3ccccc3)nn2)nn1)NNC(=S)Nc1ccccc1 ?
Satisfied

Thanks! And Cc1ccc2nc(NC(=O)Cn3cc(CN4C(=O)C(=O)c5ccccc54)nn3)sc2c1 ?
Not satisfied

Thanks! And CC(C)(O/N=C(\C(=O)N[C@@H]1C(=O)N2C(C(=O)[O-])=C(C[n+]3ccccc3)CS[C@H]12)c1csc(N)n1)C(=O)O [Ceftazidime, ceftazidime, reference compound] ?
Not satisfied

====

Reported remaining activity % of omicron spike proteins values are given for each entry in this list.
- System: Omicron spike protein (Severe acute respiratory syndrome coronavirus 2, UniProt P0DTC2, E484A/G339D/G446S/G496S/K417N/N440K/N501Y/Q493R/Q498R/S371L/S373P/S375F/S477N/T478K/Y505H)
- Format: binding, SARS-CoV-2 Omicron variant (B.1.1.529 BA.1)
- Condition summary: 0.75 µM
Numeric only. Scale: %

[[record]]
molecule = "Nn1c(Cn2cc(CSc3nc4ccccc4n3Cc3cn(Cc4n[nH]c(=S)n4N)nn3)nn2)n[nH]c1=S [compound 7]"
units_text = "%"
recorded_value = 35

[[record]]
molecule = "O=C(Cn1cc(CSc2nc3ccccc3n2Cc2cn(CC(=O)NNC(=S)Nc3ccccc3)nn2)nn1)NNC(=S)Nc1ccccc1 [compound 4]"
units_text = "%"
recorded_value = 10

[[record]]
molecule = "Cc1onc(NS(=O)(=O)c2ccc(-n3cc(CSc4nc5ccccc5n4Cc4cn(-c5ccc(S(=O)(=O)Nc6noc(C)c6C)cc5)nn4)nn3)cc2)c1C [compound 9]"
units_text = "%"
recorded_value = 5.1

[[record]]
molecule = "O=C(Cn1cc(CSc2nc3ccccc3n2Cc2cn(CC(=O)NNC(=S)Nc3ccc(F)cc3)nn2)nn1)NNC(=S)Nc1ccc(F)cc1 [compound 5]"
units_text = "%"
recorded_value = 20

[[record]]
molecule = "CC(C)(O/N=C(\\C(=O)N[C@@H]1C(=O)N2C(C(=O)[O-])=C(C[n+]3ccccc3)CS[C@H]12)c1csc(N)n1)C(=O)O [Ceftazidime, ceftazidime, reference compound]"
units_text = "%"
recorded_value = 44


Could you share which remaining activity % of omicron spike proteins value was measured for Cc1ccc2nc(NC(=O)Cn3cc(CN4C(=O)C(=O)c5ccccc54)nn3)sc2c1 [compound 12] ?
74

Thanks! And S=c1[nH]nc(Cn2cc(CSc3nc4ccccc4n3Cc3cn(Cc4n[nH]c(=S)n4-c4ccccc4)nn3)nn2)n1-c1ccccc1 [compound 6] ?
16
